Provenance of the data: patent US20210070881A1

test-system: cellular BACE1 in CHOK1-huAPP cells
method-notes: cell-based or functional assay
A collection of binders and their measured Max. % inhibition
Give your result in % as a bare value.

{"columns": ["binder", "readout-unit", "Max. % inhibition"],
 "data": [
  ["hu2H8v29 (antibody, V domains shown, humanized; also called hu2H8_HC6 + hu2H8_LC5) VH: QVQLVQSGAEVKKPGASVKVSCKASGYTFTNFWIHWVRQAPGQGLEWMGMIDPSDSYTKYNQKFKARATLTVDTSTSTVYMELSSLRSEDTAVYYCARSGVAFPYWGQGTLVTVSS VL: DIQMTQSPSSLSASVGDRVTITCKASQDVGRNVAWYQQKPGKSPKSLIYSASHRYSGVPSRFSGSGSGTDFTLTISSLQPEDFATYFCQQYNSYPYTFGQGTKVEIK", "%", 86],
  ["hu2H8v17 (antibody, V domains shown, humanized; also called hu2H8_HC6 + hu2H8_LC3) VH: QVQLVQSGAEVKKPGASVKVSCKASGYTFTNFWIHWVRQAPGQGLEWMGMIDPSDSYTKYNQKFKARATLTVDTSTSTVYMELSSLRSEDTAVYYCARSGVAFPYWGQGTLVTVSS VL: DIQMTQSPSSLSASVGDRVTITCKASQDVGRNVAWYQQKPGKAPKSLIYSASHRYSGVPSRFSGSGSGTDFTLTISSLQPEDFATYYCQQYNSYPYTFGQGTKVEIK", "%", 91]
]}

Inquiry: Please report the recorded Max. % inhibition for 2H8 (antibody, human IgG1, V domains shown, chimeric, human IgG1/kappa; also called Clone 2H8; 2H8.01) VH: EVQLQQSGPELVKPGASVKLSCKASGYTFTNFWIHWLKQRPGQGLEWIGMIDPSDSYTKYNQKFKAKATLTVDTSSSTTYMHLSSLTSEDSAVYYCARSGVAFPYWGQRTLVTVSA VL: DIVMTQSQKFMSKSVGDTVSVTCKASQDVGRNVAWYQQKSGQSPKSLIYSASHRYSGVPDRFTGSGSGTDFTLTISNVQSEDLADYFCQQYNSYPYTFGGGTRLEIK .
Reply text: 82

Inquiry: Please report the recorded Max. % inhibition for hu2H8v27 (antibody, V domains shown, humanized; also called hu2H8_HC3 + hu2H8_LC5) VH: QVQLVQSGAEVKKPGASVKVSCKASGYTFTNFWIHWLRQAPGQGLEWMGMIDPSDSYTKYNQKFKARVTMTVDTSTSTTYMELSSLRSEDTAVYYCARSGVAFPYWGQGTLVTVSS VL: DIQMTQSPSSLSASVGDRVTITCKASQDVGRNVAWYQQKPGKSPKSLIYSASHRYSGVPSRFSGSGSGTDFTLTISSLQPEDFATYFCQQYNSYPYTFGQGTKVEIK .
Reply text: 85
